# target or test system: TNFα / TNFα receptor (TNFα R1/Fc) (Homo sapiens)
# Construct: purchased R&D Systems
# method description: Inhibition of binding of TNFα to the TNFα receptor (plate ELISA competition)
# assay context: Table 2; read-out: Activity (IC50, inhibition of TNFα binding to TNFα R1/Fc)
Numbered stars: 1 amine (or outer) side, 2 acyl side, 3 side chain; on linkers, the order of the positions; unused ones are H or OH. Bridge positions count the residues as written; N and C are the ends. Square brackets hold non-standard residues; d marks the D form. Peptide text beside a SMILES is read from it. Bip = N[C@@H](Cc1ccc(-c2ccccc2)cc1)C(=O)O; dPhe(4-NH2) = Nc1ccc(C[C@@H](N)C(=O)O)cc1; Phe(4-CN) = N#Cc1ccc(C[C@H](N)C(=O)O)cc1; Phe(4-NH2) = Nc1ccc(C[C@H](N)C(=O)O)cc1; d2Thi = N[C@H](Cc1cccs1)C(=O)O; Suc = O=C(CCC(=O)[*:2])[*:1]
observation type: IC50

molecule	observation type	recorded result
N#Cc1ccc(C[C@@H]2NC(=O)[C@@H](Cc3cccs3)NC(=O)CCC(=O)Nc3ccc(cc3)C[C@@H](C(=O)O)NC(=O)[C@@H](Cc3ccccc3)NC2=O)cc1 [Compound 94] ([d2Thi][Phe(4-CN)][dF][Phe(4-NH2)]-OH; linker N-4 via Suc)	IC50	> 100 µM
CN1C(=O)COc2ccc(cc2)C[C@@H](C(=O)N[C@H](CCc2ccccc2)C(=O)O)NC(=O)[C@H](Cc2c[nH]c3ccccc23)NC(=O)[C@@H](Cc2ccc(-c3ccccc3)cc2)NC(=O)[C@@H]1Cc1c[nH]c2ccccc12	IC50	< 10 µM
O=C(O)C[C@@H]1NC(=O)[C@H](Cc2ccc(-c3ccccc3)cc2)NC(=O)[C@@H](Cc2cccs2)NC(=O)CCC(=O)Nc2ccc(cc2)C[C@@H](C(=O)O)NC1=O [Compound 64] ([d2Thi][Bip]D[Phe(4-NH2)]-OH; linker N-4 via Suc)	IC50	> 100 µM
O=C1CCC(=O)N[C@H](Cc2cccs2)C(=O)N[C@@H](Cc2ccc(-c3ccccc3)cc2)C(=O)N[C@H](Cc2ccccc2)C(=O)N[C@@H](C(=O)O)Cc2ccc(cc2)N1 [Compound 196] ([d2Thi][Bip][dF][dPhe(4-NH2)]-OH; linker N-4 via Suc)	IC50	< 10 µM

###

# target or test system: TNFα / TNFα receptor (TNFα R1/Fc) (Homo sapiens, UniProt P01375)
# Construct: purchased R&D Systems
# Sequence (P01375 77-233 limits assumed, species assumed): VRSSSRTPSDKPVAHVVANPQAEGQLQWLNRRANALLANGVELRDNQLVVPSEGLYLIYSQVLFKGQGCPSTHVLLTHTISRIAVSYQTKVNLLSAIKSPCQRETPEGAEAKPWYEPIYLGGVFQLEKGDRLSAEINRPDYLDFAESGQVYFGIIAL
# method description: Inhibition of binding of TNFα to the TNFα receptor (plate ELISA competition)
# assay context: Table 2; read-out: Activity (IC50, inhibition of TNFα binding to TNFα R1/Fc)

molecule	IC50
O=C(O)CNC(=O)[C@@H]1Cc2ccc(cc2)OCC(=O)N[C@@H](Cc2ccncc2)C(=O)N[C@H](Cc2ccc(-c3ccccc3)cc2)C(=O)N[C@@H](CCc2ccccc2)C(=O)N1 [Compound 558]	< 10 µM
O=C1N[C@@H](C(=O)O)Cc2ccc(cc2)NC(=O)[C@H](O)[C@@H](O)C(=O)N[C@@H](Cc2cccs2)C(=O)N[C@H](Cc2ccc(-c3ccccc3)cc2)C(=O)N[C@H]1Cc1ccccc1 [Compound 279]	> 100 µM
COc1ccc(C[C@@H]2NC(=O)COc3ccc(cc3)C[C@@H](C(=O)O)NC(=O)[C@H](CCc3ccccc3)NC(=O)[C@@H](Cc3ccc(-c4ccccc4)cc3)NC2=O)cc1 [Compound 681]	< 10 µM
O=C1COc2ccc(cc2)C[C@@H](C(=O)O)NC(=O)[C@H](CCc2ccccc2)NC(=O)[C@@H](Cc2ccc(-c3ccccc3)cc2)NC(=O)[C@H](Cc2ccccc2F)N1 [Compound 677]	< 10 µM
O=C1CCC(=O)N[C@H](CCc2ccccc2)C(=O)N[C@@H](Cc2ccc(-c3cccc(F)c3)cc2)C(=O)N[C@H](Cc2ccccc2)C(=O)N[C@H](C(=O)O)Cc2ccc(cc2)N1 [Compound 181]	10 to 30 µM
